Provenance of the data: ChEMBL document CHEMBL3102730

- TARGET_OF_ASSAY: Type-2 angiotensin II receptor (Homo sapiens)
- Sequence (P50052 whole entry): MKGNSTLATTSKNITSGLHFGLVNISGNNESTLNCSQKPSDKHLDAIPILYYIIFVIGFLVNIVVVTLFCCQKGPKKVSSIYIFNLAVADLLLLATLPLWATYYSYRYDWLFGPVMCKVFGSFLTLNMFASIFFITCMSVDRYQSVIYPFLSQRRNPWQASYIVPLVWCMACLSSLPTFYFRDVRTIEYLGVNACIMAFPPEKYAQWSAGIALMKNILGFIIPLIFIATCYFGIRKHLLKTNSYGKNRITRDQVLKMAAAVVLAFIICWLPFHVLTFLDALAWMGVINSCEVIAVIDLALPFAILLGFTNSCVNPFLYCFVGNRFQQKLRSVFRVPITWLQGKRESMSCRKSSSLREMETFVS
- RUN_DESCRIPTION: Displacement of [125I]CGP-42112A from human AT2 receptor expressed in HEK293 cells
- Format: cell-based
Record form. Attribute: Ki. Fill in for each entry.
One number for each entry, in µM.

List Ki for every entry below, keeping the order given.
1. CCCCS(=O)(=O)NC(=O)[C@@H](NC(=O)c1cccc(Cn2ccnc2)c1)[C@@H](C)CC
2. CC[C@H](C)[C@H](NC(=O)c1cccc(Cn2ccnc2)c1)C(=O)NNS(=O)(=O)c1c(C)cc(C)cc1C

Reply:
1. 9.9
2. 8.5
